Provenance of the data: PubChem BioAssay (NCI)

System: HT29 colon
test method notes: NCI tumour cell line growth inhibition, 48 h
property measured: log10 TGI (log10 of the value in µM)
The base-10 logarithm of TGI, taken with TGI in µM, is what appears here.

Illustrative cases are given below, each with its answer.
- molecule: "CN1CCN(CCCOc2cccc3nc(Nc4ccc(F)c(F)c4)ccc23)CC1"
  test value: 0.13
- molecule: "C=C1C(=O)O[C@H]2[C@H]1CC/C(COC(=O)NCCc1cccc(OC)c1)=C\\CC[C@@]1(C)O[C@@H]21"
  test value: 0.46
- molecule: "COC(=O)CNC(=O)CCC(C)[C@H]1CCC2C3C(C[C@H](OC(C)=O)[C@@]21C)[C@@]1(C)CCC2(C[C@H]1C[C@H]3OC(C)=O)OOC1(CCCCC1)OO2 (stereo not given in full)"
  test value: 0.87
- molecule: "N#Cc1c(-c2ccc([N+](=O)[O-])cc2)cc(-c2ccc(Nc3ccnc4cc(Cl)ccc34)cc2)nc1N"
  test value: 0.95
- molecule: "COc1ccc2[nH]c(C(=O)OCc3ccc4cccc(O)c4n3)cc2c1"
  test value: 0.44

Kindly review the next molecule as well.
INPUT: I am curious: what log10 TGI value has been reported for CC12OC(C(=O)C13CCC3)C1C(=O)c3ccc4c(ccc5ccccc54)c3C(=O)C12 (stereo not given) ?
OUTPUT: 1.28

* * *

Collected TGI values appear next to each entry.
System: SK-MEL-28 melanoma
test method notes: NCI tumour cell line growth inhibition, 48 h

Some entries whose results are on file:
- molecule: "Cn1cc(C2=C(c3ccccc3C(F)(F)F)C(=O)NC2=O)c2ccccc21"
  TGI: "> 25 µM"
- molecule: "C#CC(O)/C=C/C(O)CCCC(O)CC#CC(O)C#CCCCCC(O)/C=C/CCCC(O)/C=C/CCCCCCCCCCCCCC(O)C(O)C#CC(=O)O (configuration not stated)"
  TGI: "> 25 µM"

INPUT: Which TGI is reported for this molecule? O=c1c2c3c(sc2nc2n1N=CN(c1ccc(F)cc1)C2)CCCC3
OUTPUT: > 100 µM

INPUT: Param item = CC(=O)c1c(O)n(-c2ccc(C)cc2)c(=O)c2c(N)n[nH]c12 ; retrieve measured TGI.
OUTPUT: > 100 µM

INPUT: Field request: TGI | item: Cc1cc2c(cc1CO)N1Cc3cc(C)c(CO)cc3N(C2)C1
OUTPUT: > 100 µM

INPUT: Need TGI, item OC12CCC3(O)c4ccccc4C3C1c1ccccc12 (configuration not stated)
OUTPUT: > 100 µM

INPUT: Tell me the measured TGI of COc1cc(OC)c(C2(c3c(OC(C)C)c(=O)c3=O)SCCCS2)cc1OC , please.
OUTPUT: > 100 µM

INPUT: # input molecule: CN1NC(c2ccccc2)=C(C#N)C(=O)CC1c1ccc(Br)cc1 (configuration not stated) ; wanted: its TGI
OUTPUT: > 100 µM

INPUT: # input molecule: CCC(=O)Nc1ccc(NCC(=O)Nc2ccc(OC)cc2)cc1 ; wanted: its TGI
OUTPUT: > 100 µM

INPUT: // TGI lookup, key: CC1(C)C(=O)C(=Cc2ccco2)C1=O
OUTPUT: > 100 µM

INPUT: # get_value(readout='TGI', item= C/C(=N\NC(N)=S)c1sc(-n2nc(-c3ccccc3)cc2-c2ccccc2)nc1C )
OUTPUT: > 100 µM

INPUT: Which TGI value belongs to CN(C)c1ccc(/C=C(\NC(=O)c2ccccc2)C(=O)NC(Cc2c[nH]c3ccccc23)C(=O)O)cc1 (configuration not stated) ?
OUTPUT: > 100 µM
